molecular target: full-length human PKCι (Homo sapiens, UniProt P41743); construct: Recombinant, full-length human PKCι expressed in Sf21 insect cells is also commercially available; assay: PKCι IC50 IMAP assay, full-length PKCι at 150 μM ATP; settings: read-out: IC50 in IMAP assay against full length PKCi at 150 μM ATP
Sequence (P41743 whole entry): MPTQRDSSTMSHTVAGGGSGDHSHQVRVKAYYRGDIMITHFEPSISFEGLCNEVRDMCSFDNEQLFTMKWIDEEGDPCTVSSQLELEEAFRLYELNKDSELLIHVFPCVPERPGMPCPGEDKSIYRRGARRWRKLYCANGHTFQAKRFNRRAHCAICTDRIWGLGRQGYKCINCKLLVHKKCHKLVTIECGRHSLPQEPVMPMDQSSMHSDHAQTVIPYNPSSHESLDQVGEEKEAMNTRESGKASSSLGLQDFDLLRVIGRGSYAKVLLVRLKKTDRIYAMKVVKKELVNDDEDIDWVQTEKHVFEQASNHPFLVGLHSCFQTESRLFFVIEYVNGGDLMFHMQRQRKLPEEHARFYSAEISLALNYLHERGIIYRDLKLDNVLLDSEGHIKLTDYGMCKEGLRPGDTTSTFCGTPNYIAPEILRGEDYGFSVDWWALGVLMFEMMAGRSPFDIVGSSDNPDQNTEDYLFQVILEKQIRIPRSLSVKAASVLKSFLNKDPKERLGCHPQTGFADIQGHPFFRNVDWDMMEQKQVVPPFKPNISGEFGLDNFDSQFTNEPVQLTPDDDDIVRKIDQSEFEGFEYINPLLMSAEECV
pIC50: −log10 of the molar value.
quantity kind: pIC50

Reference set, count: 3
# compound, tgt, measured
measured = [
    ("COc1cncc2nc(-c3ccnc4[nH]c(C)cc34)nc(N3CCNCC3)c12", "full-length human PKCι (Homo sapiens, UniProt P41743)", "> 7.00"),
    ("COc1cncc2nc(-c3ccnc(Nc4ccccc4)c3)nc(N3CCC(O)C(O)C3)c12 (single isomer, unassigned) [Example 457]", "full-length human PKCι (Homo sapiens, UniProt P41743)", "6.00 to 7.00"),
    ("COc1cncc2nc(-c3ccnc(NC(=O)C4CC4)c3)nc(N3CCC(O)CC3)c12", "full-length human PKCι (Homo sapiens, UniProt P41743)", "6.00 to 7.00"),
]

Fill in the blank: the reported pIC50 of "COc1cncc2nc(-c3ccnc(Nc4ccc(N(C)C)cc4)c3)nc(N[C@@H]3CCNC3)c12" is ____.
> 7.00
